method: Ionisation constant for the compound
Type: physicochemical
quantity: pKa
One number for each entry.

Query: Consider the compound CCOc1ccc(/C=C/C(=N\NC(=O)c2cccnc2)c2ccc(O)cc2)cc1OC and give its measured pKa.
Result: 6.87
